Target: T1, Peptide G (rat PAR-2), C-terminal biotinylated (Rat (Rattus norvegicus), C-terminal biotin via G4S linker)
T1 construct: also called Peptide G C-Term
T1 peptide: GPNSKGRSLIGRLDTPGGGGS
Assay: peptide ELISA titration
Listed binders paired with reported EC50
Observed Property: EC50 (nM)

[
  {
    "Binder": "H4H579P (antibody, human IgG4, V domains shown, also called H1H579P variable regions) VH: QVQLVESGGGVVQPGRSLRLSCVASGFTFSRYGMHWVRQAPGKGLEWLIVISYDGINKYYADSVKGRFTISRDNSKNTVYLQMNSLRAEDTGVYYCAKGDFWSGYFDYWGQGTLVTVSS VL: DIVMTQTPLSSPVTLGQPASISCRSSQSLVHSDGNTYLSWLHQRPGQPPRLLIYKISNRFSGVPDRFSGSGAGTDFTLQISRVEAEDVGIYYCMQGTQFPTFGGGTKVEIK",
    "Recorded Measurement": 0.044
  },
  {
    "Binder": "H4H580P (antibody, human IgG4, V domains shown, also called H1H580P variable regions) VH: QVQLVESGGGVVQPGRSLRLSCVASGFTFSRYGMHWVRQAPGKGLEWVVVISYDGINKYYADSVKGRFTISRDNSKNTVYLQMNSLRAEDTAVYHCAKGDFWSGYFDYWGQGTLVTVSS VL: DIVMTQTPLSSPVTLGQPASISCRSSQSLVHSDGNTYLSWLHQRPGQPPRLLIYKISNRFSGVPDRFSGSGAGTDFTLQISRVEAEDVGIYYCMQATQFPTFGGGTKVEIK",
    "Recorded Measurement": 0.1
  },
  {
    "Binder": "H4H585P (antibody, human IgG4, V domains shown, also called H1H585P variable regions) VH: QVQLVESGGGVVQPGRSLRLSCVASGFTFSRYGMHWVRQAPGKGLEWLIVISYDGINKYYADSVKGRFTISRDNSKNTVYLQMNSLRAEDTAVYYCAKGDFWSGYFDYWGQGTLVTVSS VL: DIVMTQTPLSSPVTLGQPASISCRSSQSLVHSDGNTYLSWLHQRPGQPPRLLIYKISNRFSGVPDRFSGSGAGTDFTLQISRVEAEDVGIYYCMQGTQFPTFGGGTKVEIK",
    "Recorded Measurement": 0.021
  }
]
